# Measurement Target: EGFRvIII, full length, overexpressed on glioblastoma cells (human, UniProt P00533 298-623)
# Test: cell-based or functional assay
Value Type: % internalization (pHrodo surrogate assay, vs 225 mAb)

# Binder, Test Result
records = [
    ("F263-4B3 (antibody, V domains shown, Mouse hybridoma mAb) VH: EVQLQQSGPELVKPGSSVKISCKASGYTFTDYNMDWVKQSHGKSLEWIGTINPNNGGTSYNQKFKGKATLTVDKSSNTAYMELRSLTSEDSAVYYCARGYDYDLWFAYWGQGTLVTVSA VL: EIVLTQSPALMAASPGEKVTITCSVSSSISSSNLHWYQQKSETSPKPWIYGTSNLASGVPVRFSGSGSGTSYSLTISSMEAEDAATYYCQQWSSYPLTFGAGTKLELE", "61%"),
    ("F266-11B1 (antibody, V domains shown, Mouse hybridoma mAb) VH: QIQLVQSGPELKKPGETVKISCKASGYTFTTAGMQWVKKMPGKGFKWIGWINTHSGDPKYAEDFKGRFAFSLETYASTAYLQISNLKNEDTASYFCARTHIYDGYNYAMDYWGQGTSVTVSS VL: DVVMTQTPLSLPVSLGDQASISCRSSQSLVYSNGNTYLHWYLQKPGQSPKLLIYKVSNRFSGVPDRFSGSGSGTDFTLKISRVEAEDLGVYFCSQSTHVPFTFGSGTKLEIK", "131%"),
    ("F263-5D8 (antibody, V domains shown, Mouse hybridoma mAb) VH: EVQLQQSGPDLVKPGSSVKISCKASGYTFTDYNIDWVKQSHGKSLEWIGTINPNYGGTSYNQKFKGKATLTVDKSSSTAYMELRSLTSEDSAVYYCARGYDYDLWFAYWGQGTLVTVSA VL: EIVLTQSPVFMAASPGEKVTITCSVSSSISSSNLHWYQQKSETSPKPWIYGTSNLASGVPVRFSGSGSGTSYSLTISSMEAEDAATYYCQQWSSYPLTFGAGTKLELK", "64%"),
    ("F265-9C9 (antibody, V domains shown, Mouse hybridoma mAb) VH: QVQLQQPGAELVKPGASVKLSCKASGYTFTSYWMHWVKQRPGQDLEWIGEIDPSDSYTNYNQKFKGKATLTVDKSSSTAYIQLSSLTSEDSALYYCARFDFAYWGQGTLVTVSA VL: EIVLTQSPTLMAASPGEKVTITCSVSSSISSSNLHWYQQKSETSPKPWIYDTSNLASGVPIRFSGSGSGTSYSLTISSVEAEDAATYYCQQWSSYPLTFGSGTKLEIK", "87%"),
    ("F266-11H3 (antibody, V domains shown, Mouse hybridoma mAb) VH: QIQLVQSGPELKKPGETVKISCKASGYTFTTAGMQWVQKMPGKGFKWIGWINTHSGDPKYAEDFKGRFAFSLETYASTAYLQISNLKNEDTATYFCARTHIYDGYNYAMDYWGQGTSVTVSS VL: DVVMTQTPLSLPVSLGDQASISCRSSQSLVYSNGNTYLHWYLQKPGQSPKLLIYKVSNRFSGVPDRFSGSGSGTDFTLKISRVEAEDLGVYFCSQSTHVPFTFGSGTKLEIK", "131%"),
    ("F266-11C8 (antibody, V domains shown, Mouse hybridoma mAb; also called 11H5 (11C8)) VH: QIQLVQSGPELKKPGETVKISCKASGYTFTTAGMQWVQKMPGKGFKWIGWINTHSGDPKYAEDFKGRFAFSLETYASTAYLQISNLKNEDTASYFCARTHIYDGYNYAMDYWGQGTSVTVSS VL: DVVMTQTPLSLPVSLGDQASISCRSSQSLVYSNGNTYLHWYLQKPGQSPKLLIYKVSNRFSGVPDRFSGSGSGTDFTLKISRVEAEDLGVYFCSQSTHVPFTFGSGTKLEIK", "136%"),
]
